Method: Half life in cynomolgus monkey at 0.06 mg/kg, sc administered as single dose measured upto 30 days by LC-MS/MS method
Type: ADME, organism-based, Macaca fascicularis
Condition notes: in vivo, time < 30 day
Starred links: 1 amine or outer side, 2 acyl side, 3 side chain; linkers in the order of their positions; H or OH if unused. Non-standard residues stand in square brackets, D forms with d. Residues, ends and D or L forms follow the SMILES beside them. *: point of attachment. C20 diacid = O=C(O)CCCCCCCCCCCCCCCCCCC(=O)*; γGlu = O=C(O)[C@H](CCC(=O)[*:2])N[*:1]; Iva = CC[C@](C)(N)C(=O)O; PEG2 = NCCOCCOCCC(=O)O
Value type: half-life (days)

compound="CC[C@](C)(NC(=O)[C@@H](NC(=O)CCOCCOCCNC(=O)CCOCCOCCNC(=O)CC[C@H](NC(=O)CCCCCCCCCCCCCCCCCCC(=O)O)C(=O)O)C(C)C)C(=O)NCC(=O)N[C@@H](CO)C(=O)N1CCC[C@H]1C(=O)N[C@@H](CO)C(=O)N[C@@H](C)C(=O)N[C@@H](CCC(N)=O)C(=O)N[C@@H](CCC(=O)O)C(=O)N[C@@H](CCC(=O)O)C(=O)N[C@@H](C)C(=O)N[C@@H](CO)C(=O)N1CCC[C@H]1C(=O)N[C@@H](C)C(N)=O ({C20 diacid-γGlu-PEG2-PEG2}-V[Iva]GSPSAQEEASPA-NH2)" value_unit=days measured=10.7

* * *

Method: Half-life in Sprague-Dawley rat serum at 0.04 mg/kg, sc administered as single dose measured upto 10 days by LC-MS/MS method
Assay type: ADME, organism-based
Condition notes: time < 10 day
Starred links: 1 amine or outer side, 2 acyl side, 3 side chain; linkers in the order of their positions; H or OH if unused. Non-standard residues stand in square brackets, D forms with d. Residues, ends and D or L forms follow the SMILES beside them. *: point of attachment. C20 diacid = O=C(O)CCCCCCCCCCCCCCCCCCC(=O)*; γGlu = O=C(O)[C@H](CCC(=O)[*:2])N[*:1]; Iva = CC[C@](C)(N)C(=O)O; PEG2 = NCCOCCOCCC(=O)O
Value type: half-life (h)

compound="CC[C@](C)(NC(=O)[C@@H](NC(=O)CCOCCOCCNC(=O)CCOCCOCCNC(=O)CC[C@H](NC(=O)CCCCCCCCCCCCCCCCCCC(=O)O)C(=O)O)C(C)C)C(=O)NCC(=O)N[C@@H](CO)C(=O)N1CCC[C@H]1C(=O)N[C@@H](CO)C(=O)N[C@@H](C)C(=O)N[C@@H](CCC(N)=O)C(=O)N[C@@H](CCC(=O)O)C(=O)N[C@@H](CCC(=O)O)C(=O)N[C@@H](C)C(=O)N[C@@H](CO)C(=O)N1CCC[C@H]1C(=O)N[C@@H](C)C(N)=O ({C20 diacid-γGlu-PEG2-PEG2}-V[Iva]GSPSAQEEASPA-NH2)" measured=33.4

* * *

Method: Half-life in Sprague-Dawley rat serum at 600 ug/kg, sc administered as single dose measured upto 10 days by LC-MS/MS method
Type: ADME, organism-based
Condition notes: 0.6 mg/kg, dose 600 µg/kg, time < 10 day
Value type: half-life (min)

substance=H-VVGSPSAQDEASPL-NH2 value_unit=min measured=5.88

* * *

Method: Tmax in Sprague-Dawley rat serum at 0.12 mg/kg, sc administered as single dose measured upto 10 days by LC-MS/MS method
Type: ADME, organism-based
Condition notes: time < 10 day
Starred links: 1 amine or outer side, 2 acyl side, 3 side chain; linkers in the order of their positions; H or OH if unused. Non-standard residues stand in square brackets, D forms with d. Residues, ends and D or L forms follow the SMILES beside them. *: point of attachment. C20 diacid = O=C(O)CCCCCCCCCCCCCCCCCCC(=O)*; γGlu = O=C(O)[C@H](CCC(=O)[*:2])N[*:1]; Iva = CC[C@](C)(N)C(=O)O; PEG2 = NCCOCCOCCC(=O)O
Value type: Tmax (h)

compound="CC[C@](C)(NC(=O)[C@@H](NC(=O)CCOCCOCCNC(=O)CCOCCOCCNC(=O)CC[C@H](NC(=O)CCCCCCCCCCCCCCCCCCC(=O)O)C(=O)O)C(C)C)C(=O)NCC(=O)N[C@@H](CO)C(=O)N1CCC[C@H]1C(=O)N[C@@H](CO)C(=O)N[C@@H](C)C(=O)N[C@@H](CCC(N)=O)C(=O)N[C@@H](CCC(=O)O)C(=O)N[C@@H](CCC(=O)O)C(=O)N[C@@H](C)C(=O)N[C@@H](CO)C(=O)N1CCC[C@H]1C(=O)N[C@@H](C)C(N)=O ({C20 diacid-γGlu-PEG2-PEG2}-V[Iva]GSPSAQEEASPA-NH2)" value_type=Tmax value_unit=h measured=24
